Values from patent US4721713A

# ASSAY_PROTOCOL: Acute toxicity in rats
# Assay type: in vivo, male Wister rats
# MEASUREMENT_CONTEXT: rat, in vivo; oral, rats
ASSAY_ENDPOINT: LD50 (mg/kg)
Numbers only; they are read as mg/kg.

So what's the measured LD50 for this one? Cc1nc(O)c(C(C)C)nc1C.Cl 903

====

# ASSAY_PROTOCOL: Acute toxicity in mice
# Assay type: in vivo
# MEASUREMENT_CONTEXT: mouse, in vivo, intravenous, read-out: LD50
ASSAY_ENDPOINT: LD50

So what's the measured LD50 for this one? Cc1nc(O)c(C(C)C)nc1C.Cl ~200 mg/kg

====

# ASSAY_PROTOCOL: Acute toxicity in mice
# Type: in vivo
# MEASUREMENT_CONTEXT: mouse, in vivo, oral, read-out: LD50 oral
ASSAY_ENDPOINT: LD50 (mg/kg)
Numbers only; they are read as mg/kg.

So what's the measured LD50 for this one? Cc1nc(O)c(C(C)C)nc1C.Cl 555
